Target: transport protein of L1210 (Mus musculus, UniProt P41438)
Sequence (P41438 whole entry): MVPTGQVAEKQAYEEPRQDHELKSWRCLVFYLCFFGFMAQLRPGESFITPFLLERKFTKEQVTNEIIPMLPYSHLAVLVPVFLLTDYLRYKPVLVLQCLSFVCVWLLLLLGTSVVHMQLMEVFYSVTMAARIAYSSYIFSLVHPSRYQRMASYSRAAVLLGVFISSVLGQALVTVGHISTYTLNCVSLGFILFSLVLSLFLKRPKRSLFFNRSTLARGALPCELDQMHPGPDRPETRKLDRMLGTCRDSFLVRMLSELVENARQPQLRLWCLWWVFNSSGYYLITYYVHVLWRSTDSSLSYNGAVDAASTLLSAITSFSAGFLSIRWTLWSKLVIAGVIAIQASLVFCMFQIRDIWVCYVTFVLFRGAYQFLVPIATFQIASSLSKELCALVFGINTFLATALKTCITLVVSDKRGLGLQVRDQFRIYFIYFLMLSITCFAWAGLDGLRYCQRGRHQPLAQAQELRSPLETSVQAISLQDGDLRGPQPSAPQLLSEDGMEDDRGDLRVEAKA
Assay: Transport (influx, efflux) in L1210 cells
Type: cell-based
Details: average of 3-6 runs, standard error less than 15%
Parameter transport efflux k: see the listing below.
Give just the number in min⁻¹; leave the unit off.

Please give the documented transport efflux k of CN(Cc1cnc2nc(N)nc(N)c2n1)c1ccc(C(=O)N[C@@H](CCC(=O)O)C(=O)O)cc1 [methotrexate, reference compound]
0.213

Tell me measured transport efflux k for CC(Cc1cnc2nc(N)nc(N)c2n1)c1ccc(C(=O)N[C@@H](CCC(=O)O)C(=O)O)cc1 (single isomer, unassigned) [d, L-10-methyl, 10-methyl-10-deazaminopterin] please.
0.258

Recall and state the measured transport efflux k for CC(Cc1cnc2nc(N)nc(N)c2n1)c1ccc(C(=O)N[C@@H](CCC(=O)O)C(=O)O)cc1 (single isomer, unassigned) [l, L-10-methyl, 10-methyl-10-deazaminopterin] .
0.267

Find the measured transport efflux k of CCC(Cc1cnc2nc(N)nc(N)c2n1)c1ccc(C(=O)N[C@@H](CCC(=O)O)C(=O)O)cc1 (single isomer, unassigned) [l, L-10-ethyl, l,L-10-ethyl-10-deazaminopterin] and report it.
0.249

Please give measured transport efflux k of the following entry: CCC(Cc1cnc2nc(N)nc(N)c2n1)c1ccc(C(=O)N[C@@H](CCC(=O)O)C(=O)O)cc1 (stereo partly drawn) [d, L-10-ethyl, d,L-10-ethyl-10-deazaminopterin]
0.253
